- TARGET DESC: IDO (Homo sapiens, UniProt P14902)
- Sequence (P14902 whole entry): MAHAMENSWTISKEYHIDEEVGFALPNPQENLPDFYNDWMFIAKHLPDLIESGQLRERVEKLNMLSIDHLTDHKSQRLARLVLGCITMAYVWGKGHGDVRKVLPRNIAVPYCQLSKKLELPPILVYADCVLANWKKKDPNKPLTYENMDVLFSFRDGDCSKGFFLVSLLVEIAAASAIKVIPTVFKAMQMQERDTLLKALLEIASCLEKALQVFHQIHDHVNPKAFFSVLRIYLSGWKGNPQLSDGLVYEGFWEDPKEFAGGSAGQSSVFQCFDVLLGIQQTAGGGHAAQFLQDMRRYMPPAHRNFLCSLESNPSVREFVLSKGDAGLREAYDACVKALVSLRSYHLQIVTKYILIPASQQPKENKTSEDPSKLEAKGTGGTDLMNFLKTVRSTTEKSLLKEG
- MEASUREMENT NOTES: LLE_IDO_ABS_DR (IDO assay)
pIC50: −log10 of the molar value.
PROPERTY: pIC50

Given the entry CN(c1ccc(-c2ccccc2-c2nnn[nH]2)cc1NC(=O)Nc1ccccc1F)c1ccccc1C(C)(C)C , report its measured pIC50.
6.89

P = O=C(Nc1ccc(C2CC2)cc1)Nc1cc(-c2ccccc2-c2nnn[nH]2)ccc1N(CCC(F)(F)F)Cc1ccc(F)cc1C(F)(F)F
Q = CC(C)CN(c1cc(F)c(-c2cc(F)ccc2C(=O)O)cc1NC(=O)Nc1ccc(F)cc1F)C1CCCCC1
R = CC(C)CN(CC(C)C)c1ccc(-c2ccccc2-c2nnn[nH]2)cc1NC(=O)Nc1cccc(-c2cnco2)c1
Order by pIC50, ascending. Give the labels in the order specified.
R, P, Q

I = CCn1nc(C)c(-c2ccc(N(CC(C)C)CC(C)C)c(NC(=O)Nc3ccc(C)cc3)c2)c1C(=O)O
II = Cc1ccc(NC(=O)Nc2cc(-c3cc(F)ccc3C(=O)O)ccc2N(CC(C)C)C2CCC2)cc1
III = O=C(Nc1ccc(C2CC2)cc1)Nc1cc(-c2ccccc2-c2nnn[nH]2)ccc1N(CCc1ccccc1)CCC(F)(F)F
List these items ordered by pIC50, big to small. Give the labels in the order specified.
II, III, I
(II: 7.30, III: 7.10, I: 6.68)

a = Cc1ccc(NC(=O)Nc2cc(-c3cccc(C(=O)O)c3)ccc2N(CC(C)C)CC2CCC2)cc1
b = CCN(CC(C)(C)C)c1ccc(-c2cc(F)ccc2C(=O)O)cc1NC(=O)Nc1ccc(C)cc1
Between these two entries, a and b , state which has the higher pIC50. Select an item and report its label.
b
(b: 6.40, a: 5.33)

I = Cc1ccc(NC(=O)Nc2cc(-c3cc(F)ccc3-c3nnn[nH]3)c(F)cc2N(CC(C)C)C2CCCCC2)cc1
II = CC(C)CN(c1ccc(-c2ccccc2C(=O)O)cc1NC(=O)Nc1ccc(F)cc1F)C(C)C
III = Cc1ccc(NC(=O)Nc2cc(-c3cscc3C(=O)O)ccc2N(CC(C)C)CC(C)C)cc1
IV = Cc1ccc(NC(=O)Nc2cc(-c3cc(F)ccc3C(=O)O)ccc2N(CC(C)C)C(C)C)cc1
V = Cc1ccc(NC(=O)Nc2cc(-c3ccccc3C(=O)NS(=O)(=O)C(F)(F)F)ccc2N(CC(C)C)CC(C)C)cc1
Order by pIC50, ascending. Give the labels in the order specified.
V, IV, II, III, I

Source: patent US9758492B2
